- measured_target: T1, LNX2_2, Q8N448
- T1 sequence (Q8N448 334-432, limits assumed, looked up): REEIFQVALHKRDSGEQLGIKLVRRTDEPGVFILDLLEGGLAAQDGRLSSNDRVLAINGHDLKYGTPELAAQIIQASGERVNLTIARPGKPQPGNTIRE
- experiment: holdup assay
- Parameters: key: below the threshold = too weak to quantify, mostly under pKd 3.1 to 4
- conditions: plain residues with an end cap or a label only (N-terminal biotin on a linker: ttds)
reported_metric: pKd
Answer field: number only, no words.

Field request: pKd | item: NPDALPETLV [ARHGAP6, O43182]
4.66

Now look at this entry.
Request the reported pKd associated with KLVIKTETTV [RASSF6, Q6ZTQ3]
4.48
